# TEST_TARGET: Cruzipain (Trypanosoma cruzi) (UniProt P25779)
# PROTOCOL_DETAILS: Inhibition of recombinant Trypanosoma cruzi cruzain using Z-Phe-Argaminomethylcoumarin as fluorogenic substrate preincubated at 75 uM for 10 mins before substrate addition by fluorimetry
ASSAY_ENDPOINT: inhibition (%)

- SMILES_REPR: "C/C(=N\\Nc1nc(-c2ccc([N+](=O)[O-])cc2)cs1)c1ccccn1"
  TEST_TARGET: "Cruzipain (Trypanosoma cruzi) (UniProt P25779)"
  ASSAY_ENDPOINT: "inhibition"
  EXPERIMENTAL_RESULT: 11
- SMILES_REPR: "C(=N\\Nc1nc(-c2ccccc2)cs1)/c1ccccn1"
  TEST_TARGET: "Cruzipain (Trypanosoma cruzi) (UniProt P25779)"
  ASSAY_ENDPOINT: "inhibition"
  EXPERIMENTAL_RESULT: 9
- SMILES_REPR: "C/C(=N\\Nc1nc(-c2cccc([N+](=O)[O-])c2)cs1)c1ccccn1"
  TEST_TARGET: "Cruzipain (Trypanosoma cruzi) (UniProt P25779)"
  ASSAY_ENDPOINT: "inhibition"
  EXPERIMENTAL_RESULT: 10
- SMILES_REPR: "Clc1ccc(-c2csc(N/N=C/c3ccccn3)n2)c(Cl)c1"
  TEST_TARGET: "Cruzipain (Trypanosoma cruzi) (UniProt P25779)"
  ASSAY_ENDPOINT: "inhibition"
  EXPERIMENTAL_RESULT: 0

a = Clc1ccc(-c2csc(N/N=C/c3ccccn3)n2)cc1
b = COc1ccc(-c2csc(N/N=C/c3ccccn3)n2)cc1
Sorting ascending by inhibition, which comes first: a or b ? Answer format: the label of the selected item.
a

----------
# System: HepG2
# PROTOCOL_DETAILS: Cytotoxicity against human HepG2 cells after 48 hrs by
# Format: cell-based
# PARTICULARS: HepG2, 48 h
Attribute: pIC50
pIC50 is defined as minus the log10 of a concentration measured in mol/L.

# annotated cases, reported pIC50 shown
- SMILES_REPR: "C(=N\\Nc1nc(-c2ccc3ccccc3c2)cs1)/c1ccccn1"
  pIC50: 4.00
- SMILES_REPR: "Fc1ccc(-c2csc(N/N=C/c3ccccn3)n2)cc1"
  pIC50: 4.74

Next molecule, pIC50 to be filled in.
Quick one: pIC50 for `C/C(=N\Nc1nc(-c2ccccc2)cs1)c1ccccn1` ?
4.04

----------
# TEST_TARGET: Cruzipain (Trypanosoma cruzi, UniProt P25779)
# Sequence (P25779 whole entry): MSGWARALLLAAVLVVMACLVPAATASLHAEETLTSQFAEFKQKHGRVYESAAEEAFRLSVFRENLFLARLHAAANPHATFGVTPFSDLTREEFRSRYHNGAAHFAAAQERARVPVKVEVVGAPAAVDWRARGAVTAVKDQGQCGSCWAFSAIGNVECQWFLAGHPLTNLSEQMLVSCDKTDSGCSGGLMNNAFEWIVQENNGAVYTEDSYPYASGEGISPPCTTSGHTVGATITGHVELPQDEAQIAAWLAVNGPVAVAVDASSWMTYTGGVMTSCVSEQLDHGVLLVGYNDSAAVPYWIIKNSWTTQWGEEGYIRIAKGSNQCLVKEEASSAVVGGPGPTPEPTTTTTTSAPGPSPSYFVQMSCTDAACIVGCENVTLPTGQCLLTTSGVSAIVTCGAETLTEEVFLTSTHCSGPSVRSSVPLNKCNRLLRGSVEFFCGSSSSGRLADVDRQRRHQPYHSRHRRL
# PROTOCOL_DETAILS: Inhibition of recombinant Trypanosoma cruzi cruzain using Z-Phe-Argaminomethylcoumarin as fluorogenic substrate preincubated for 10 mins before substrate addition by fluorimetry
pIC50: −log10 of the molar value.
ASSAY_ENDPOINT: pIC50

# annotated cases, reported pIC50 shown
- SMILES_REPR: "O=[N+]([O-])c1cccc(-c2csc(N/N=C/c3ccccn3)n2)c1"
  EXPERIMENTAL_RESULT: 5.89
- SMILES_REPR: "C/C(=N\\Nc1nc(-c2ccc(F)cc2)cs1)c1ccccn1"
  EXPERIMENTAL_RESULT: 6.52
- SMILES_REPR: "C/C(=N\\Nc1nc(-c2ccc(Cl)cc2Cl)cs1)c1ccccn1"
  EXPERIMENTAL_RESULT: 5.32
- SMILES_REPR: "C/C(=N\\Nc1nc(-c2ccc(C)cc2)cs1)c1ccccn1"
  EXPERIMENTAL_RESULT: 6.40

1 = C/C(=N\Nc1nc(-c2ccc(Cl)c(Cl)c2)cs1)c1ccccn1
2 = C/C(=N\Nc1nc(-c2ccc3ccccc3c2)cs1)c1ccccn1
3 = C/C(=N\Nc1nc(-c2ccccc2)cs1)c1ccccn1
4 = COc1ccc(-c2csc(N/N=C(\C)c3ccccn3)n2)cc1
5 = Brc1ccc(-c2csc(N/N=C/c3ccccn3)n2)cc1
Arrange the 5 compounds by rising pIC50, starting with the smallest. List the labels, following the order given in the request.
5, 3, 1, 4, 2
(5: 5.02, 3: 5.89, 1: 6.40, 4: 7.40, 2: 8.00)
